system: TE-1 (Esophageal Squamous Cell Carcinoma); assay: combination Emax (second highest fraction inhibited in the dose matrix, 72 h); higher = more inhibition; extreme values may be limits of the assay
EXPERIMENTAL_READOUT: combination Emax
Respond numerically, and do not add a unit to the figure.

Quick check: combination Emax of COc1nnc2ccc(N3CCC(c4ccc(OCCN5CCN(C)C(=O)[C@H]5C)cc4)CC3)nn12 [AZD5153] + CN(CC[C@H](CSC1=CC=CC=C1)NC2=C(C=C(C=C2)S(=O)(=O)NC(=O)C3=CC=C(C=C3)N4CCC(CC4)[C@H](C5=CC=CC=C5C6=CC=C(C=C6)Cl)O)S(=O)(=O)C(F)(F)F)CCO [AZD4320] (first compound max 1 µM, 7x7, partner max 1 µM) ? 0.485

GET /values?readout=combination Emax&item= CCN(CCO)CCCOc1ccc2c(Nc3cc(CC(=O)Nc4cccc(F)c4)[nH]n3)ncnc2c1 [AZD2811] + C[C@@H]1COCCN1C2=NC(=NC(=C2)C3(CC3)[S@](=N)(=O)C)C4=C5C=CNC5=NC=C4 [AZD6738] (first compound max 1 µM, 7x7, partner max 10 µM) 0.449

Record request: combination Emax value, item CN(CCO)CC[C@H](CSc1ccccc1)Nc1ccc(S(=O)(=O)NC(=O)c2ccc(N3CCC([C@@H](O)c4ccccc4-c4ccc(Cl)cc4)CC3)cc2)cc1S(=O)(=O)C(F)(F)F [AZD4320] + C=CCn1c(=O)c2cnc(Nc3ccc(N4CCN(C)CC4)cc3)nc2n1-c1cccc(C(C)(C)O)n1 [AZD1775] (first compound max 1 µM, partner max 1 µM) 0.824

Name the recorded combination Emax for Cc1c2c(nn1C)CSCc1cc(n(C)n1)CSc1cc(c3ccccc3c1)OCCCc1c(C(=O)O)n(C)c3c-2c(Cl)ccc13 [AZD5991] + C=CCn1c(=O)c2cnc(Nc3ccc(N4CCN(C)CC4)cc3)nc2n1-c1cccc(C(C)(C)O)n1 [AZD1775] (first compound max 1 µM, partner max 1 µM) . 0.89

Fill blank: measured combination Emax of the molecule CN(CCO)CC[C@H](CSc1ccccc1)Nc1ccc(S(=O)(=O)NC(=O)c2ccc(N3CCC([C@@H](O)c4ccccc4-c4ccc(Cl)cc4)CC3)cc2)cc1S(=O)(=O)C(F)(F)F [AZD4320] + Cn1cnc2c(F)c(Nc3ccc(Br)cc3Cl)c(C(=O)NOCCO)cc21 [Selumetinib] (first compound max 1 µM, 7x7, partner max 3 µM) is ____. 0.554
